assay: TOX21_p53_BLA_p3_viability: Viability Assessment in the Tox21 HCT-116 p53 Agonism Beta-lactamase Assay, Phase 3 (AID 2283593);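 note: cells exposed to compound for 16 h before reading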
Records with an inconclusive call do not appear. Calls of active or inactive are those of the source. Rule for the calls: active = hit-call score of the fitted dose curve at least 0.9, where 1 is the maximum; inconclusive = response in the unintended direction; inactive = score below 0.9.
Allowed answers: active, inactive

// outcome(item) with item = CCc1nccnc1CC
inactive

Another compound to check: C[N+](C)(C)CCOC(N)=O
inactive

Another compound to check: COc1ccc2c(c1)OC(C)(C)C(c1ccccc1)C2c1ccc(OCCN2CCCC2)cc1 (stereo not drawn)
active

Another compound to check: Cc1nnc(C(C)C)n1C1C[C@H]2CC[C@@H](C1)N2CC[C@@H](NC(=O)C1CCC(F)(F)CC1)c1ccccc1 (stereo partly drawn)
inactive

Another compound to check: COc1ccccc1N1CCN(CC(O)COc2cccc3ccccc23)CC1 (stereo not drawn)
inactive

Another compound to check: Cc1cc(C)c(S(=O)(=O)O)cc1N=Nc1cc(S(=O)(=O)O)c2ccccc2c1O
inactive

Another compound to check: CNCCC=C1c2ccccc2CCc2ccccc21
inactive

Another compound to check: CC(C)(C)OC(=O)c1ccccc1C(=O)O
inactive

Another compound to check: CC1C(=O)CC2C3(C)CCC2(C(C)C(=O)O)C(=O)C13 (stereo not drawn)
inactive

Another compound to check: CC[C@@]1(O)C(=O)OCc2c1cc1n(c2=O)Cc2cc3c(CN(C)C)c(O)ccc3nc2-1
active

Another compound to check: Nc1ccc(N=Nc2ccccc2)c(N)c1
inactive

Another compound to check: O=C(O)c1ccc(OCCCOc2ccc(C(=O)O)cc2)cc1
inactive

Another compound to check: CCCC(C)c1ccccc1O (stereo not drawn)
inactive

Another compound to check: CCN1CCC[C@H]1CNC(=O)c1cc(S(N)(=O)=O)ccc1OC
inactive

Another compound to check: CN(C)C(=O)CNC(=O)Cc1ccccc1
inactive

Another compound to check: C=CC(=O)OCCCl
inactive

Another compound to check: CCOC(=O)[C@H](CCc1ccccc1)N[C@@H](C)C(=O)N1[C@H](C(=O)O)C[C@H]2CCCC[C@@H]21
inactive

Another compound to check: C=CCN1C[C@H](C(=O)N(CCCN(C)C)C(=O)NCC)C[C@@H]2c3cccc4[nH]cc(c34)C[C@H]21
inactive

Another compound to check: CC(Cl)=CCCl
inactive

Another compound to check: N[C@H](C(=O)O)[C@@H]1CC(Cl)=NO1
active

Another compound to check: COC(=O)CCCC(=O)O
inactive

Another compound to check: Cc1onc(-c2c(F)cccc2Cl)c1C(=O)N[C@@H]1C(=O)N2[C@@H]1SC(C)(C)[C@@H]2C(=O)O
inactive

Another compound to check: NCC[C@H](O)C(=O)N[C@@H]1C[C@H](N)[C@@H](O[C@H]2O[C@H](CN)[C@@H](O)[C@H](O)[C@H]2O)[C@H](O)[C@H]1O[C@H]1O[C@H](CO)[C@@H](O)[C@H](N)[C@H]1O
inactive
